Quick reference for logP among some compounds
Format: numeric value only, no unit, no commentary.

CCOP(=S)(OCC)Oc1ccc(N)cc1    2.6
CC(C)c1ccccc1N    2.12
CC(C)(C)C    3.11

Now take the following compound into account.
Ask: Given the compound "CN(C)N=Nc1cccc(Cl)c1" , what is its reported logP?
Reply: 3.44

---

Let's look at some molecules and their measured logP.
Please state the value as a number alone, without comment.

COc1ccc(CCN)cc1OC    0.77
CCCCCCCC(C)=O    3.14
CCN(CC)CC(O)c1ccccc1 (stereo not given)    2.02
O=C(O)c1cc([N+](=O)[O-])ccc1Cl    2.03
Cc1cccc(Cl)c1    3.28
Clc1cncc(Cl)c1    2.56
CCC(=O)c1ccc(O)cc1    2.03
CCCC(=O)CC(=O)CCC    2.23

Ask: Please give the measured logP for this molecule: "CCCCCCCCBr"
Reply: 4.89

Ask: Next molecule: "NC(=O)Nc1ccccc1"
Reply: 0.83

Ask: Note, next up: "OCCc1cccnc1"
Reply: 0.12

Ask: # iterate: "CCCOc1cc(N)ccc1C(=O)O"
Reply: 1.53

Ask: What do you get for "BrC=CBr" ?
Reply: 1.76

Ask: Moving on to the next molecule: "OCc1ccc(O)cc1"
Reply: 0.25

Ask: Try this molecule next: "NC(=O)c1ccncc1"
Reply: -0.28

---

In this section we review reported logP values for a set of molecules.
Please reply with the value in numeric form only.

A selection of reference data follows.
CC(=O)NC(Cc1ccccc1)C(N)=O (configuration not stated)    -0.04
CNC(=O)NC    -0.49

Field: next molecule
Ask: Requested field: logP. Item: "Oc1cc(Cl)ccc1Cl"
Reply: 3.06

---

experimental.readout: logP
Write the number on its own, no unit after it.

# example entries with known answers
O=[N+]([O-])c1ccc(C=Cc2ncccn2)o1    1.34
CCc1ccncc1    1.65
CCNC(C)C    0.93
CC=CC(C)=O    0.52

Note: attention shifts to another entry.
Ask: Using the record for "CN1CCN(CCCN2c3ccccc3Sc3ccc(C(F)(F)F)cc32)CC1" , report its logP.
Reply: 5.03

---

Collected logP values appear next to each entry.
Format: numeric value only, no unit, no commentary.

Examples with their reported logP follow.
CCCOC(N)=O    0.36
CN(C)C(=O)OCc1ccc([N+](=O)[O-])cc1    1.95
CCC(=O)O[C@]1(c2ccccc2)CCN(C)C[C@@H]1C    2.83
Cc1c(Cl)cc(-c2ccc(=O)[nH]n2)cc1Cl    3.2
CCCCOc1ccc(O)cc1    2.9
O=C(O)Cc1cccc(Cl)c1    2.09
CC(C)OC(=O)Nc1cccc(Cl)c1    3.51
CNCC(F)(F)F    0.55
COc1cc(C(O)CN)ccc1O (stereo not drawn)    -1.05
CN(C)CCN1C(=O)c2ccccc2N(C)c2ccccc21    2.5

Ask: Name the reported logP value associated with the compound "COc1cnc2ccccc2n1"
Reply: 2.31

Ask: Also "COc1cccc(N)c1" ?
Reply: 0.93

Ask: Field entry: "CCCCCCCCN(C)/N=N/c1ccc(C(N)=O)cc1"
Reply: 4.7

---

Sorting guide: entries reporting logP beneath 2 go in the 1 pile, the rest go in the -1 pile.

Consider the worked cases shown below.
CC(C)(C)C(=O)c1ccccc1    -1
C=C1C(=O)OC2C1CCC(C)C1(O)C=CC(=O)C21C (stereo unspecified)    1
Cc1ccco1    1
Ic1ccc2ccccc2n1    -1
COc1cccc(OC(=O)c2ccc(N)cc2O)c1    -1

Ask: Hello, I'm reviewing records and need to know if logP of "CC(C)NNC(=O)COc1ccccc1Cl" is below 2. Could you check?
Reply: 1

Ask: Please answer likewise for "NC(=O)Nc1ccccc1Cl"
Reply: 1

Ask: For "CCc1cccnc1" then?
Reply: 1

---

Entries annotated with measured logP
Please respond with just the number, no unit label.

Worked set:
CCI    2
Cc1cc(C(=O)NNCc2ccccc2)no1    1.49
Cc1cc2c(cc1S(N)(=O)=O)S(=O)(=O)NCN2    -0.22
CC(=O)OCCn1c([N+](=O)[O-])cnc1C    0.3
COc1ccc(O)c2ncccc12    2.06
CC(C(c1ccccc1)c1ccccc1)[N+](=O)[O-] (stereo unspecified)    3.91

Ask: Look up logP: CCCCCCOC1OC(CO)C(O)C(O)C1O (stereo unspecified)
Reply: 0.16

Ask: Let us now turn to "S=C1CCCCN1"
Reply: 0.13

---

Recorded logP, one value per entry.
Reply: number alone, nothing else.

Some compounds with known logP results, for comparison:
c1ccc(-c2cc3ccccc3[nH]2)nc1    3.33
COC(=O)Cn1ccnc1[N+](=O)[O-]    -0.09

Ask: For the compound "CCNc1nc(Cl)nc(NCC)n1" , what logP is on record?
Reply: 2.18

Ask: What about "Nc1cccc2nc3ccccc3cc12" ?
Reply: 2.47

Ask: Please do the same for "CCCBr" as well.
Reply: 2.1

Ask: // repeat for "NC(=O)Nc1cccc(OCC(=O)O)c1" and report
Reply: 0.26

Ask: "Nc1ccc(N)cc1" ?
Reply: -0.3

Ask: Now the same for "NNc1ccccc1"
Reply: 1.25

---

Recorded measurements of logP, one per entry

For orientation, consider the following solved cases.
COC(=O)Cc1ccccc1    1.83
COc1cccc2c1C(=O)c1c(O)c3c(c(O)c1C2=O)CC(O)(C(C)O)CC3OC1CC(N2CCOCC2)C(O)C(C)O1 (stereo not given)    2.03

Ask: Fill in the blank: the reported logP of "CNC(=O)CSP(=S)(OC)OC" is ____.
Reply: 0.78

Ask: Okay, and C=C1C(=O)OC2CC(C)C3C=CC(=O)C3(C)CC12 (stereo not given) ?
Reply: 1.17

Ask: # repeat for COc1cc(C(C)(C)C)c(OC)cc1CC(C)N (stereo not given)
Reply: 3.91

Ask: // query: CCCCCCCCCC1(c2ccncc2)CCC(=O)NC1=O (stereo not given)
Reply: 4.64

Ask: Let us now turn to "O=C(O)Cc1ccc(F)cc1"
Reply: 1.55

Ask: Here is the next compound: CCNc1nc(NC(C)C(C)C)nc(SC)n1 (stereo not given)
Reply: 3.9

Ask: Another compound to look at: "CON(C)C(=O)Nc1ccc(C=C(C#N)C#N)cc1"
Reply: 2.19

---

Known logP of a selection of compounds

O=C(Cn1cnc([N+](=O)[O-])n1)NCCO    -1.59
OCCNCCO    -1.43
O=C1NCN(c2ccccc2)C12CCN(CCCC(c1ccc(F)cc1)c1ccc(F)cc1)CC2    5.86

Ask: Look up logP for this compound: "CCOc1ccc2nc(S(N)(=O)=O)sc2c1"
Reply: 2.01

Ask: What do we get for "NC(=O)CCCCc1cccnc1" ?
Reply: 0.4

Ask: Lookup CCC1CCCCN1C(=O)COC(=O)c1ccccc1 (configuration not stated)
Reply: 2.62

Ask: Entry to check: "NC(=O)C(=Cc1ccccc1)C(N)=O"
Reply: -0.13

Ask: Further, for "CCc1ccccn1" ?
Reply: 1.69

Ask: How about this compound: "CN(C)CC/C=C1\c2ccccc2CSc2ccccc21"
Reply: 4.49

Ask: Also need "O=C(CNC(=O)c1ccccc1)Oc1cccc([N+](=O)[O-])c1" , thanks.
Reply: 2.46

Ask: Follow-up entry: "O=C(O)c1cc(I)cc(I)c1O"
Reply: 4.56

Ask: Param item: "CCN(CC)CCNC(=O)c1ccc(N)cc1"
Reply: 0.88

---

Please note: criterion met applies when logP is 3 or greater, and criterion not met applies otherwise.

Recorded results for 3 compounds are shown here.
O=C1CCC(N2C(=O)c3ccccc3C2=O)C(=O)N1 (stereo not drawn)    criterion not met
COC(=O)c1cnc2ccccc2c1    criterion not met
O=C(CCl)NC(CO)C(O)c1ccc([N+](=O)[O-])cc1 (stereo not drawn)    criterion not met

Please examine the following record next.
Ask: Reported logP reaches at least 3 for "Nc1cc(Cl)cc(Cl)c1" ?
Reply: criterion not met

---

Categories are assigned from the measured logP using these intervals: lower bin: < 0.7; middle bin: ≥ 0.7 and < 2; upper bin: ≥ 2

Past entries and their recorded results:
Oc1ccc(Cn2cc[nH]c2=S)cc1    middle bin
CN(C)c1ccc(C=C[N+](=O)[O-])cc1    upper bin
O=[N+]([O-])c1nccn1CCO    lower bin
Cc1ccc(/C(=C\CN2CCCC2)c2ccccn2)cc1    upper bin
c1cnc2nccnc2c1    lower bin

Ask: Note: place this compound into its band. Item: "O=[N+]([O-])c1ccc2sccc2c1"
Reply: upper bin

Ask: Thanks! And "CC(=O)c1ccc(F)cc1" ?
Reply: middle bin

Ask: Try "NNP(=O)(Oc1ccccc1)Oc1ccccc1" next.
Reply: middle bin

Ask: Also, "CNC(=O)Oc1ccccc1C" please.
Reply: middle bin

Ask: Queued: O=C1CC(OC(=O)c2ccccc2)N1 (stereo not drawn)
Reply: middle bin
